Measured logP of individual entries

Completed entries (count: 3):
INSERT INTO results (given_smiles, endpoint_name, observed_value) VALUES
  ('CCc1oc(C)cc(=O)c1O', 'logP', 1.07),
  ('CCCn1cccc(O)c1=O', 'logP', 0.69),
  ('CCc1occc(=O)c1O', 'logP', 0.63);

Sample `COCc1cc(=O)c(O)co1` ; logP observed: -0.62

Form: compound = `CCCOCc1cc(=O)c(O)co1` ; logP = 0.3

For `CCCCOCc1cc(=O)c(O)co1` the compound record lists logP as 0.78

---

Collected logP values appear next to each entry.
The answer should be written as a number, with no unit following it.

Consider the reported logP for these compounds:
INSERT INTO measurements (given_smiles, endpoint_name, observed_value) VALUES
  ('CCOCc1cc(=O)c(O)co1', 'logP', -0.38),
  ('Cc1cc(=O)c(O)c(C)o1', 'logP', 0.44),
  ('O=c1ccocc1O', 'logP', -0.92);

Documented logP of `Cc1cc(=O)c(O)co1` : -0.59

Notebook: `NCCn1ccc(=O)c(O)c1` , logP read as -0.66

According to the records, this compound `CCn1cccc(O)c1=O` displays logP of 0.2

Value source: the OPERA property sets (Mansouri et al. 2018)
